# EXPERIMENT: logP determination (HPLC/MS characterisation, HCOOH)
# Type: physicochemical
# TEST CONTEXT: HCOOH; HPLC/MS; read-out: logP(HCOOH)
REPORTED PROPERTY: chromatographic logP

| ENTRY SMILES | OBSERVED MEASUREMENT |
| --- | --- |
| Cn1nnnc1/C(=N\OCc1csc(NC(=O)O/N=C/c2ccccc2)n1)c1ccccc1 | 3.39 |
| Cn1nnnc1/C(=N\OCc1csc(N=C=O)n1)c1ccccc1 | 3.13 |

---

# EXPERIMENT: logP determination (HPLC/MS characterisation, HCOOH)
# Type: physicochemical
# TEST CONTEXT: Table 1; read-out: log P
REPORTED PROPERTY: chromatographic logP

| MOLECULE | OBSERVED MEASUREMENT |
| --- | --- |
| Cn1nnnc1/C(=N\OCc1csc(NC(=O)O/N=C/c2ccccc2)n1)c1ccccc1 [Example 1] | 3.13 |
